TARGET_OF_ASSAY: JMJD2E (Homo sapiens, UniProt B2RXH2)
Sequence (B2RXH2 1-337): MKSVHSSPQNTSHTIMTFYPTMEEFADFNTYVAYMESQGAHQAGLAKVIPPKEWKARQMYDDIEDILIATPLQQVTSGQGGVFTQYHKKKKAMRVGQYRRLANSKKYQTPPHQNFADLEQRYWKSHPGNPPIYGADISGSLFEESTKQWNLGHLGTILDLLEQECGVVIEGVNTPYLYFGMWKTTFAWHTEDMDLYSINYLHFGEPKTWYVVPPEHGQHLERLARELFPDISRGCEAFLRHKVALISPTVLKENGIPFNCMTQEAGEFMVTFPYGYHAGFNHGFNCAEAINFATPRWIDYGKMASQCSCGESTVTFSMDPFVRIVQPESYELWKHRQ
ASSAY_EXPLANATION: JMJD2E FDH-coupled assay under low and high iron conditions (iron chelation profile)
Type: biochemical
Parameters: The catalytic domain of human JMJD2E (residues 1–337); His6 (N); made in house; host or cells: E. coli
CONDITION_LABEL: Table S1; high iron
PARAMETER: qHTS Data: jmjd2e fas20um CurveClass

I looked up `Cc1ccc(C)c(S(=O)(=O)N2CCN(Cc3ccc(O)c4ncccc34)CC2)c1` and its qHTS Data: jmjd2e fas20um CurveClass for JMJD2E (Homo sapiens, UniProt B2RXH2) was Inactive

I looked up `NC(=O)c1ccc(-n2nnnc2SCC(=O)c2ccc(O)c(O)c2)cc1` and its qHTS Data: jmjd2e fas20um CurveClass for JMJD2E (Homo sapiens, UniProt B2RXH2) was Inactive

I looked up Cc1ccc(N2C(=O)CC(Sc3ncn[nH]3)C2=O)cc1C (stereo not drawn) and its qHTS Data: jmjd2e fas20um CurveClass for JMJD2E (Homo sapiens, UniProt B2RXH2) was Inactive
